Please respond with reported pKd for every item in the list.
Molecular target: Son of sevenless homolog 1 (Homo sapiens, UniProt Q07889)
Assay: Binding affinity to human recombinant N-terminal His6-tagged SOS1 (564 to 1049 residues) expressed in BL21-RIL Escherichia coli by fluorescent probe S2 based fluorescence polarization anisotrophy saturation binding assay
Numbers only, as −log10 of the molar value.

Consider the following illustrative entries.
CPD SMILES	READOUT	MEASUREMENT
Cc1cc(Cn2c(N3CCNCC3)nc3c(N4CCC[C@@H]4CN)cc(Cl)cc32)cc(C)c1F	pKd	6.62
Cc1cc(Cn2c(N3CCNCC3)nc3c(N4CCC[C@@H]4CO)cc(Cl)cc32)cc(C)c1F	pKd	6.42

Consider the following items and state reported pKd for each.
1. Cc1cc(Cn2c(N3CCNCC3)nc3c(N4CCOCC4)cc(Cl)cc32)cc(C)c1F
2. Cc1cc(Cn2c(N3CCNCC3)nc3c(N4CCC[C@H]4CO)cc(Cl)cc32)cc(C)c1F

Result:
6.89
6.51

* * *

Molecular target: Son of sevenless homolog 1 (Homo sapiens) (UniProt Q07889)
Sequence (whole entry): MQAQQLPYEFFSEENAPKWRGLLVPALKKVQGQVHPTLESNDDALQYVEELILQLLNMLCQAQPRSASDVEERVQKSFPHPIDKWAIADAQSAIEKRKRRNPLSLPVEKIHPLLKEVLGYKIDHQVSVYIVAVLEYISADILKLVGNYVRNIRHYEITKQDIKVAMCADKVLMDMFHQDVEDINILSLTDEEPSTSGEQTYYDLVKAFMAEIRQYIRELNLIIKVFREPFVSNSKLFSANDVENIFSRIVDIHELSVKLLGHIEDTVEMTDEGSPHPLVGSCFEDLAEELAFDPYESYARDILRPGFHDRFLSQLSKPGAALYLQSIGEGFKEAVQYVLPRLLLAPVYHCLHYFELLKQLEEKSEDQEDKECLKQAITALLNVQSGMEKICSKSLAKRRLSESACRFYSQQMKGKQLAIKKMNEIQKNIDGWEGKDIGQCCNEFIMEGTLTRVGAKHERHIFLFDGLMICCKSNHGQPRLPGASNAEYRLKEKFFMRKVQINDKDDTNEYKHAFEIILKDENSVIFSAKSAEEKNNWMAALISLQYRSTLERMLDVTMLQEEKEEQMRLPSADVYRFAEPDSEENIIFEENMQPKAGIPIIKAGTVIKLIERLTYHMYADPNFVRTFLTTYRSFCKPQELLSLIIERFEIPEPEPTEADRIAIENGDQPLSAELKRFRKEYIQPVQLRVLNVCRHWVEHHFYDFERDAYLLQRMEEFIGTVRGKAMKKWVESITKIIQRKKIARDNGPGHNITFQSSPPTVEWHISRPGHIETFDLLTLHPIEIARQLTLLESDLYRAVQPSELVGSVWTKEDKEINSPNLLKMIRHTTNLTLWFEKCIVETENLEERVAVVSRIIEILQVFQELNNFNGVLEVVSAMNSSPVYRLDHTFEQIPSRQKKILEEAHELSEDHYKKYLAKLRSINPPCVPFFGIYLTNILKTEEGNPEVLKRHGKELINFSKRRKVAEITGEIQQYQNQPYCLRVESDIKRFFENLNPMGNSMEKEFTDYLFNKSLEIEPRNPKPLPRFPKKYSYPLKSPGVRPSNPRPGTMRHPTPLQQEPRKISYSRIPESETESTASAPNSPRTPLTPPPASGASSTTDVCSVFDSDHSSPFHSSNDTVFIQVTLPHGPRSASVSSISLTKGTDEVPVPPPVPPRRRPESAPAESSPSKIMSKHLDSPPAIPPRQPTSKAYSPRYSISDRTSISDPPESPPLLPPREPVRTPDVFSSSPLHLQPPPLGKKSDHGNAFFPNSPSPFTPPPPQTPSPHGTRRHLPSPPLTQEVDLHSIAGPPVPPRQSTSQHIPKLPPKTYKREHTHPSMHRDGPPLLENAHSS
Experiment: Biphasic activity at of SOS1 in human HeLa cells expressing wild type KRAS assessed as induction of ERK1/2 T202/Y204 phosphorylation at 1.5 to 100 uM (lower range) incubated for 30 mins by In-cell Western assay
Type: cell-based
Activity calls are given as the source filed them. The rule behind the calls is not given here.
READOUT: Activity

CPD SMILES	Activity
Cc1cc(Cn2c(N3CCNCC3)nc3c(N4CCC[C@H]4CN)cc(Cl)cc32)cc(C)c1F	Active
Cc1cc(Cn2c(N3CCNCC3)nc3c(-c4cncnc4C(C)C)cc(Cl)cc32)cc(C)c1F	Active
Cc1cc(Cn2c(N3CCNCC3)nc3c(N4CCN(C)CC4)cc(Cl)cc32)cc(C)c1F	Active
Cc1cc(Cn2c(N3CC4(CNC4)C3)nc3c(-c4ccccc4Cl)cc(Cl)cc32)cc(C)c1F	Active
Cc1cc(Cn2c(N3CCNCC3)nc3c(-c4ccccc4Cl)cc(Cl)cc32)cc(C)c1F	Active

Need Activity for each of these compounds.
1. Cc1cc2nc(N3CCNCC3)n(Cc3ccc(F)c(Cl)c3)c2cc1C
2. Cc1cc(Cn2c(N3CCNCC3)nc3c(-c4cncnc4C)cc(Cl)cc32)cc(C)c1F

Result:
1: Active; 2: Active

* * *

Target: Son of sevenless homolog 1 (Homo sapiens)
Sequence (Q07889 whole entry): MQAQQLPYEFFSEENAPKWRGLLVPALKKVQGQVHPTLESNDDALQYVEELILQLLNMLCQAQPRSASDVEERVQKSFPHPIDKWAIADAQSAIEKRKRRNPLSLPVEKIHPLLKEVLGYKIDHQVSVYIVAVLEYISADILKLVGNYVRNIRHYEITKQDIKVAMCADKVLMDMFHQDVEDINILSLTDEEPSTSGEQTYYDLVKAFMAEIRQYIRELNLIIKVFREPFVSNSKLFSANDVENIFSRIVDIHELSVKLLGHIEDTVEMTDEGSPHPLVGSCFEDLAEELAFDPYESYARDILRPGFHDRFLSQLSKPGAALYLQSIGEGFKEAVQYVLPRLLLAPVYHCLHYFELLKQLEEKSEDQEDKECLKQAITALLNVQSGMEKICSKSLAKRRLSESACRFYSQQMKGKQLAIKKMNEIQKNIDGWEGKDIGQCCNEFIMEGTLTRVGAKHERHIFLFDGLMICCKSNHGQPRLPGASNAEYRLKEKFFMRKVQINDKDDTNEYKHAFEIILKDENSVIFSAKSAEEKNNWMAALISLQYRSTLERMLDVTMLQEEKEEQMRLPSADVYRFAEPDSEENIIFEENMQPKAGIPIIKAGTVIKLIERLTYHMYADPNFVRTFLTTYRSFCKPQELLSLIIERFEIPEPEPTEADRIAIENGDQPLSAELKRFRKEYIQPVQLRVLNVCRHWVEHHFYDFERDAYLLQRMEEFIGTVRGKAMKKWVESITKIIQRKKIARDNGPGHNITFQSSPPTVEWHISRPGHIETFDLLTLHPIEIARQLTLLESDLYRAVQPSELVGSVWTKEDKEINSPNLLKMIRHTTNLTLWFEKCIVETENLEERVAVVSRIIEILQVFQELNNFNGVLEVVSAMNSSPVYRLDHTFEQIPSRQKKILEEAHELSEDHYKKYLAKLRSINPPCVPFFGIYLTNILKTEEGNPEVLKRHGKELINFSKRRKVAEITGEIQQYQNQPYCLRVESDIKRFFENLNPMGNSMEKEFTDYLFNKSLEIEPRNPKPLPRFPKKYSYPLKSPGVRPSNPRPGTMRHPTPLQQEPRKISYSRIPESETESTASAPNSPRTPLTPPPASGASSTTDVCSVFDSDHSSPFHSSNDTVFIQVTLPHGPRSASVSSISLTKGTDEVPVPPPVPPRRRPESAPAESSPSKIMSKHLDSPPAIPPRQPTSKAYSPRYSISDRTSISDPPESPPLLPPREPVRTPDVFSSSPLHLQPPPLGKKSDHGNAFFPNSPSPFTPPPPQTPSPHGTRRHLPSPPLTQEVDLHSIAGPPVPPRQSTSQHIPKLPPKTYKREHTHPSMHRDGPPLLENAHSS
Test: Activation of human recombinant N-terminal His6-tagged SOS1 (564 to 1049 residues) expressed in BL21-RIL Escherichia coli assessed as SOS1-RAS complex formation by measuring exchange of GTP to BODIPY-GDP measured every 3 secs for 30 mins by nucleotide exchange assay
Can you tell me EC50 for the items I'm about to list?
Give bare numbers, in µM.

Consider the worked cases shown below.
CPD SMILES	TEST TARGET	UNIT INFO	EC50
Cc1cc2nc(N3CCNCC3)n(Cc3ccc(F)c(C)c3)c2cc1C	Son of sevenless homolog 1 (Homo sapiens)	µM	4.1
Cc1cc2nc(N3CCCNCC3)n(Cc3ccc(F)c(Cl)c3)c2cc1C	Son of sevenless homolog 1 (Homo sapiens)	µM	8.5
Cc1cc2c(cc1C)N(Cc1ccccc1)C1=NCCCN12	Son of sevenless homolog 1 (Homo sapiens)	µM	23.2

Please give EC50 for each item listed below.
1. Cc1cc2nc(NCCN)n(Cc3ccc(F)c(Cl)c3)c2cc1C
2. Fc1ccc(Cn2c(N3CCNCC3)nc3ccc(C4CC4)cc32)cc1Cl
3. Cc1cc2nc(N3CCNCC3)n(Cc3ccc(F)c(C(F)(F)F)c3)c2cc1C
4. Cc1cc2nc(N3CCNCC3)n(Cc3ccc(F)c(C4CC4)c3)c2cc1C
5. Fc1ccc(Cn2c(N3CCNCC3)nc3ccc(C(F)(F)F)cc32)cc1Cl
6. Fc1ccc(Cn2c(N3CCNCC3)nc3ccc(Br)cc32)cc1Cl
7. Cc1cc2nc(N3CCNCC3)n(Cc3ccc(C(F)(F)F)cc3)c2cc1C
8. Cc1cc2nc(N3CCNCC3)n(Cc3ccc(Cl)cc3)c2cc1C

Result:
1: 1.9; 2: 24.3; 3: 8.1; 4: 11.7; 5: 4.4; 6: 1.3; 7: 19.6; 8: 12.4

Take each entry in turn and give its EC50.
1. Cc1cc2nc(N3CCC(N)CC3)n(Cc3ccc(F)c(Cl)c3)c2cc1C
2. Fc1ccc(CN2C3=NCCCN3c3ccccc32)cc1

Result:
1. 6.6
2. 63

Would you mind giving EC50 for every compound in the list below?
1. Fc1ccc(Cn2c(N3CCNCC3)nc3ccccc32)cc1Cl
2. Fc1ccc(Cn2c(N3CCNCC3)nc3ccc(Cl)cc32)cc1Cl
3. Cc1cc2nc(NC3CCNCC3)n(Cc3ccc(F)c(Cl)c3)c2cc1C
4. Cc1cc2nc(N3CCNCC3)n(Cc3ccccc3)c2cc1C

Result:
5.4
1
37.1
8.6

Field: EC50. Fill in for each record below.
1. Cc1cc2nc(N3CCNCC3)n(Cc3ccc(F)c(Cl)c3)c2cc1Cl
2. Cc1cc2nc(N3CCNCC3)n(Cc3cc(C)c(F)c(C)c3)c2cc1C
3. Cc1ccc2nc(N3CCNCC3)n(Cc3ccc(F)c(Cl)c3)c2c1
4. Cc1cc2nc(N3CCN(C)CC3)n(Cc3ccc(F)c(Cl)c3)c2cc1C
5. Cc1cc2nc(N3CCNCC3)n(Cc3ccc(F)c(Cl)c3)c2cc1C

Result:
1: 3; 2: 3.7; 3: 2.4; 4: 26; 5: 2.2
